The reported measurements were obtained from the Immune Epitope Database (IEDB).

biological target: HLA-A*29:02; experiment: IEDB peptide-MHC binding, purified MHC/competitive/radioactivity; filed as Kd, often an IC50 or EC50 that approximates it; bounds were set here for any values at or beyond the usual limits of such assays; details: source organism: Mammarenavirus brazilense
Exercise: for every item that follows, state its recorded Kd.
Just the number plus its unit, please.

Give its Kd value. Item: `LSEMLNKEY`
5720 nM

How about this sequence: `DTGNYILCY`
1410 nM

Follow-up entry: `GYKETPFLTI`
108 nM

* * *

molecular target: HLA-A*24:02; assay: IEDB peptide-MHC binding, purified MHC/competitive/fluorescence; bounds were set here for any values at or beyond the usual limits of such assays; settings: source organism: Zaire ebolavirus
recorded metric: pIC50
# pIC50: negative log10 of molar concentration; output just the value

Short answer please: pIC50, HLA-A*24:02, entry `ICQLIIQAF`
6.35

Same lookup for `QDGLICGLR` , please.
6.37

Another: `PKAENTNTS`
4.21

What do you get for `RLAKLTEAI` ?
5.85

Try the sequence `QVHAEQGLI`
4.33

Now the sequence `MMKDEPVVF`
6.66

Same lookup for `YHKILTAGL` , please.
5.13

Another sequence to look at: `ILMNFHQKK`
5.01

How about `AAVSHLTTL` ?
5.65

Next sequence up: `RRTRREAIV`
4.20

And the next one, `EWAFWETKK` ?
5.22

Field entry: `YQGDYKLFL`
6.04

# repeat for `QGLIQYPTA`
4.90

Param item: `NFLIKFLLI`
8.03

* * *

molecular target: HLA-A*26:01; assay: IEDB peptide-MHC binding, purified MHC/direct/fluorescence; filed as Kd, often an IC50 or EC50 that approximates it; bounds were set here for any values at or beyond the usual limits of such assays; conditions: source organism: La Crosse virus
pKd: −log10 of the molar value.
recorded metric: pKd

Given the entry `YRKPSGGVF` , report its measured pKd.
≤ 4.70

* * *

molecular target: HLA-A*32:15; assay: IEDB peptide-MHC binding, purified MHC/competitive/fluorescence; filed as Kd, often an IC50 or EC50 that approximates it; bounds were set here for any values at or beyond the usual limits of such assays; details: source organism: Mycobacterium tuberculosis variant bovis BCG str. Pasteur 1173P2
recorded metric: Kd (nM)
State the answer as a number, implicitly in nM.

Fill in: Kd of `MTMITPPTF` is ___
19.2

* * *

Assign Kd to each entry below.
target: HLA-B*08:03; experiment: IEDB peptide-MHC binding, purified MHC/direct/fluorescence; filed as Kd, often an IC50 or EC50 that approximates it; bounds were set here for any values at or beyond the usual limits of such assays; conditions: source organism: Ravn virus - Ravn, Kenya, 1987

Name the reported Kd value associated with the sequence `CVFKFIVAK`
≥ 20 µM

Then this sequence: `SRTPSGKRL`
≥ 20 µM

* * *

molecular target: HLA-A*11:01; assay: IEDB peptide-MHC binding, purified MHC/direct/fluorescence; filed as Kd, often an IC50 or EC50 that approximates it; bounds were set here for any values at or beyond the usual limits of such assays; conditions: source organism: Campylobacter jejuni
recorded metric: pKd
Note on pKd: it is the negative log10 of concentration, concentration in mol/L.

Under HLA-A*11:01: pKd value of `SFGAGTLAK` ?
6.42
